Overview of reported Final product mass obtained from the 20 μL of mRNA transcription system across a group of molecules:
target: T7 RNA Polymerase (Escherichia phage T7, UniProt P00573); format: biochemical; settings: 20 μL transcription system, Cap1 Analog 4 mM, 37° C. 2 to 3 hours
Sequence (P00573 whole entry): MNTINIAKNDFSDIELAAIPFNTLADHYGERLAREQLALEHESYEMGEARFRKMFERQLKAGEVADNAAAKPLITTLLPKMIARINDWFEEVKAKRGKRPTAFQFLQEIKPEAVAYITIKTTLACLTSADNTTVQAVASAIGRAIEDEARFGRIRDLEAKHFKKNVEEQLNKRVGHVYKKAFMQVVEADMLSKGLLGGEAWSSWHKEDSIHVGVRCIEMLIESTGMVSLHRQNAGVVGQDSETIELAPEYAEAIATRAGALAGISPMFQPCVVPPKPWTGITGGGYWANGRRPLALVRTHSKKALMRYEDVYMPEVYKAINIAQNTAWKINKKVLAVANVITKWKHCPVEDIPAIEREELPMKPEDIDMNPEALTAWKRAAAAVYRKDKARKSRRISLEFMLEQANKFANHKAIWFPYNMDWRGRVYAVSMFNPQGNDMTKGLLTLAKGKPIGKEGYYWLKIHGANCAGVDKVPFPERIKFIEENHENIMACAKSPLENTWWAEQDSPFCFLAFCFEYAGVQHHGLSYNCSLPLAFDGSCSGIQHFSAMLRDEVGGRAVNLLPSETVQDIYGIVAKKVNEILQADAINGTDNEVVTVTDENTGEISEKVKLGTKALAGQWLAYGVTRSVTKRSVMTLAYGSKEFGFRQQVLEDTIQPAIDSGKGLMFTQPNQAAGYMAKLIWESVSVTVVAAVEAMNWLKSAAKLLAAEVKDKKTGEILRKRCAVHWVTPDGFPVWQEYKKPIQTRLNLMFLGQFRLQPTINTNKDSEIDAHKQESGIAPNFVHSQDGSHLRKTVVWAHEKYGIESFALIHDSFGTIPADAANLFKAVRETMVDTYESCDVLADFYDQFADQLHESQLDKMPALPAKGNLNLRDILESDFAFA
Write down the numeric answer in µg and omit the unit.

Report Final product mass obtained from the 20 μL of mRNA transcription system for CNC(=O)C[C@H]1[C@@H](O)[C@H](n2c[n+](C)c3c(=O)[nH]c(N)nc32)O[C@@H]1COP(=O)(O)OP(=O)(O)OP(=O)(O)OC[C@H]1O[C@@H](n2cnc3c(N)ncnc32)[C@H](OC)[C@@H]1OP(=O)(O)OC[C@H]1O[C@@H](n2ccc(=O)[nH]c2=O)[C@H](O)[C@@H]1O
107

// fetch Final product mass obtained from the 20 μL of mRNA transcription system given entry CO[C@@H]1[C@H](OP(=O)(O)OC[C@H]2O[C@@H](n3cnc4c(=O)[nH]c(N)nc43)[C@H](O)[C@@H]2O)[C@@H](COP(=O)(O)CP(=O)(O)OP(=O)(O)OC[C@H]2O[C@@H](n3c[n+](C)c4c(=O)[nH]c(N)nc43)[C@H](O)[C@@H]2CNC(C)=O)O[C@H]1n1cnc2c(N)ncnc21
110

Indicate its recorded Final product mass obtained from the 20 μL of mRNA transcription system; the molecule in question is COC[C@H]1[C@@H](O)[C@H](n2c[n+](C)c3c(=O)[nH]c(N)nc32)O[C@@H]1COP(=O)(O)OP(=O)(O)OP(=O)(O)OP(=O)(O)OC[C@H]1O[C@@H](n2cnc3c(N)ncnc32)[C@H](OC)[C@@H]1OP(=O)(O)OC[C@H]1O[C@@H](n2cnc3c(=O)[nH]c(N)nc32)[C@H](O)[C@@H]1O
92

In one line, give reported Final product mass obtained from the 20 μL of mRNA transcription system of the entry CNC(=O)C[C@H]1[C@@H](O)[C@H](n2c[n+](C)c3c(=O)[nH]c(N)nc32)O[C@@H]1COP(=O)(O)OP(=O)(O)OP(=O)(O)OC[C@H]1O[C@@H](n2cnc3c(N)ncnc32)[C@H](OC)[C@@H]1OP(=O)(O)OC[C@H]1O[C@@H](n2cnc3c(=O)[nH]c(N)nc32)[C@H](O)[C@@H]1O .
95

Please indicate Final product mass obtained from the 20 μL of mRNA transcription system recorded for CO[C@@H]1[C@H](OP(=O)([O-])OC[C@H]2O[C@@H](n3cnc4c(=O)[nH]c(N)nc43)[C@H](O)[C@@H]2O)[C@@H](COP(=O)(O)OP(=O)(O)OP(=O)(O)OC[C@H]2O[C@@H](n3c[n+](C)c4c(=O)[nH]c(N)nc43)[C@H](O)[C@@H]2CN=[N+]=[N-])O[C@H]1n1cnc2c(N)ncnc21
118

====

target: T7 RNA Polymerase (Escherichia phage T7); format: biochemical; settings: 20 μL transcription system, Cap1 Analog 4 mM, 37° C. 2 to 3 hours
Decide using Final product mass obtained from the 20 μL of mRNA transcription system: a value greater than or equal to 100 µg is satisfied, a smaller one is not satisfied.

Example entries and their recorded answers appear below.
COMPOUND	ASSIGNED_CATEGORY
COC[C@H]1[C@@H](O)[C@H](n2c[n+](C)c3c(=O)[nH]c(N)nc32)O[C@@H]1COP(=O)(O)OP(=O)(O)OP(=O)(O)OC[C@H]1O[C@@H](n2cnc3c(N)ncnc32)[C@H](OC)[C@@H]1OP(=O)([O-])OC[C@H]1O[C@@H](n2ccc(=O)[nH]c2=O)[C@H](O)[C@@H]1O [Compound 110]	satisfied
CO[C@@H]1[C@H](OP(=O)([O-])OC[C@H]2O[C@@H](n3cnc4c(=O)[nH]c(N)nc43)[C@H](O)[C@@H]2O)[C@@H](COP(=O)(O)OP(=O)(O)OP(=O)(O)OC[C@H]2O[C@@H](n3c[n+](C)c4c(=O)[nH]c(N)nc43)[C@H](O)[C@@H]2CNC(=O)c2ccccc2)O[C@H]1n1cnc2c(N)ncnc21 [Compound 309]	satisfied
CCOC[C@H]1[C@@H](O)[C@H](n2c[n+](C)c3c(=O)[nH]c(N)nc32)O[C@@H]1COP(=O)(O)OP(=O)(O)OP(=O)(O)OC[C@H]1O[C@@H](n2cnc3c(N)ncnc32)[C@H](OC)[C@@H]1OP(=O)(O)OC[C@H]1O[C@@H](n2cnc3c(=O)[nH]c(N)nc32)[C@H](O)[C@@H]1O [Compound 139]	satisfied
COCCNC(=O)C[C@@H]1[C@@H](COP(=O)(O)OP(=O)(O)OP(=O)(O)OC[C@H]2O[C@@H](n3cnc4c(N)ncnc43)[C@H](OC)[C@@H]2OP(=O)([O-])OC[C@H]2O[C@@H](n3cnc4c(=O)[nH]c(N)nc43)[C@H](O)[C@@H]2O)OC(n2c[n+](C)c3c(=O)[nH]c(N)nc32)[C@@H]1O (stereo partly shown) [Compound 58]	satisfied
COC[C@@H]1[C@@H](COP(=O)(O)OP(=O)([O-])OP(=O)([O-])OC[C@H]2O[C@@H](n3cnc4c(N)ncnc43)[C@H](OC)[C@@H]2NP(=O)(O)OC[C@H]2O[C@@H](n3cnc4c(=O)[nH]c(N)nc43)[C@H](O)[C@@H]2O)OC(n2c[n+](C)c3c(=O)[nH]c(N)nc32)[C@@H]1O.[Na+] (stereo partly shown) [Compound 195]	not satisfied

Given the entry CO[C@@H]1[C@H](OP(=O)([O-])OC[C@H]2O[C@@H](n3cnc4c(=O)[nH]c(N)nc43)[C@H](O)[C@@H]2O)[C@@H](COP(=O)(O)OP(=O)(O)OP(=O)(O)OC[C@H]2O[C@@H](n3c[n+](C)c4c(=O)[nH]c(N)nc43)[C@H](O)[C@@H]2CNC=O)O[C@H]1n1cnc2c(N)ncnc21 [Compound 299] , answer whether its Final product mass obtained from the 20 μL of mRNA transcription system meets or surpasses 100 µg.
satisfied

hey, is Final product mass obtained from the 20 μL of mRNA transcription system for this one >= 100 µg? CCCCCCNC(=O)C[C@H]1[C@@H](O)[C@H](n2c[n+](C)c3c(=O)[nH]c(N)nc32)O[C@@H]1COP(=O)(O)OP(=O)(O)OP(=O)(O)OC[C@H]1O[C@@H](n2cnc3c(N)ncnc32)[C@H](OC)[C@@H]1OP(=O)([O-])OC[C@H]1O[C@@H](n2cnc3c(=O)[nH]c(N)nc32)[C@H](O)[C@@H]1O [Compound 643]
satisfied

Please indicate if the recorded Final product mass obtained from the 20 μL of mRNA transcription system for COCCOC[C@H]1[C@@H](O)[C@H](n2c[n+](C)c3c(=O)[nH]c(N)nc32)O[C@@H]1COP(=O)(O)OP(=O)(O)OP(=O)(O)OC[C@H]1O[C@@H](n2cnc3c(N)ncnc32)[C@H](OC)[C@@H]1OP(=O)(O)OC[C@H]1O[C@@H](n2cnc3c(=O)[nH]c(N)nc32)[C@H](O)[C@@H]1O [Compound 141] meets or exceeds 100 µg.
not satisfied

Determine whether measured Final product mass obtained from the 20 μL of mRNA transcription system meets or exceeds 100 µg for CNc1ncnc2c1ncn2[C@@H]1O[C@H](COP(=O)(O)OP(=O)(O)OP(=O)(O)OC[C@H]2O[C@@H](n3c[n+](C)c4c(=O)[nH]c(N)nc43)[C@H](O)[C@@H]2COC)[C@@H](OP(=O)([O-])OC[C@H]2O[C@@H](n3cnc4c(=O)[nH]c(N)nc43)[C@H](O)[C@@H]2O)[C@H]1OC [Compound 197]
satisfied

For this compound, is measured Final product mass obtained from the 20 μL of mRNA transcription system 100 µg or higher? CCO[C@@H]1[C@H](OP(=O)(O)OC[C@H]2O[C@@H](n3cnc4c(=O)[nH]c(N)nc43)[C@H](O)[C@@H]2O)[C@@H](COP(=O)(O)OP(=O)(O)OP(=O)(O)OCC2O[C@@H](n3c[n+](C)c4c(=O)[nH]c(N)nc43)[C@H](O)[C@@H]2COC)O[C@H]1n1cnc2c(N)ncnc21 (stereo partly shown) [Compound 203]
not satisfied

Confirm if Final product mass obtained from the 20 μL of mRNA transcription system reported for the compound CNC(=O)C[C@H]1[C@@H](OC)[C@H](n2c[n+](C)c3c(=O)[nH]c(N)nc32)O[C@@H]1COP(=O)(O)OP(=O)(O)OP(=O)(O)OC[C@H]1O[C@@H](n2cnc3c(N)ncnc32)[C@H](OC)[C@@H]1OP(=O)(O)OC[C@H]1O[C@@H](n2cnc3c(=O)[nH]c(N)nc32)[C@H](O)[C@@H]1O [Compound 645] is 100 µg or above.
satisfied
